Target: panel of more than 300 wild-type and mutant kinases (313 kinase panel) (Homo sapiens)
Sequence (P07947 whole entry, change not shown): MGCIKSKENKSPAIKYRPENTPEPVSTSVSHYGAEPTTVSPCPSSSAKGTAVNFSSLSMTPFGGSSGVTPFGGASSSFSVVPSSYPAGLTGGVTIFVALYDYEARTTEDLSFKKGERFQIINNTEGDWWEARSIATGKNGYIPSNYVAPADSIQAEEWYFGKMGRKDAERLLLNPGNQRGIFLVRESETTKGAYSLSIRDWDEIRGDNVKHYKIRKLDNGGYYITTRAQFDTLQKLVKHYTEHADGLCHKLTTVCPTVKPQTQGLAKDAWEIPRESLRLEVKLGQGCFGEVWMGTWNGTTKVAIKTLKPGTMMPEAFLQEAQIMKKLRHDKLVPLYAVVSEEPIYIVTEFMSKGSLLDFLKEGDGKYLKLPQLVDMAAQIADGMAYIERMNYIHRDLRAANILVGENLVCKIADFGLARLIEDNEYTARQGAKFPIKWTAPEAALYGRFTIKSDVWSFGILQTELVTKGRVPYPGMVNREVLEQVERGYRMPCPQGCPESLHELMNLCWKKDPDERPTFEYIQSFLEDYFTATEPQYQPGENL
Assay: Kinase profiling in a biochemical assay panel (mobility shift assays and ELISA), %-inhibition at 1 μM; selectivity entropy
Conditions: kinase YES; compound at 1 μM
Would you kindly list %-inhibition of YES for each of these compounds?
Quick reminder: number only, in %, skip the unit.

(Q) Read the entry CS(=O)(=O)CCNCc1ccc(-c2ccc3ncnc(Nc4ccc(OCc5cccc(F)c5)c(Cl)c4)c3c2)o1 and write its reported %-inhibition of YES.
(A) 26

(Q) Read the entry COc1cc2nccc(Oc3ccc(NC(=O)C4(C(=O)Nc5ccc(F)cc5)CC4)cc3)c2cc1OC [cabozantinib] and write its reported %-inhibition of YES.
(A) 90

(Q) Read the entry CCN(CC)CCNC(=O)c1c(C)[nH]c(/C=C2\C(=O)Nc3ccc(F)cc32)c1C and write its reported %-inhibition of YES.
(A) 99

(Q) Read the entry CO[C@H]1C[C@@H]2CC[C@@H](C)[C@@](O)(O2)C(=O)C(=O)N2CCCC[C@H]2C(=O)O[C@H]([C@H](C)C[C@@H]2CC[C@@H](OCCO)[C@H](OC)C2)CC(=O)[C@H](C)/C=C(\C)[C@@H](O)[C@@H](OC)C(=O)[C@H](C)C[C@H](C)/C=C/C=C/C=C/1C and write its reported %-inhibition of YES.
(A) 0

(Q) Read the entry COc1cc(Nc2c(C#N)cnc3cc(OCCCN4CCN(C)CC4)c(OC)cc23)c(Cl)cc1Cl and write its reported %-inhibition of YES.
(A) 97

(Q) Read the entry O=S(=O)(c1cccc2cnccc12)N1CCCNCC1 and write its reported %-inhibition of YES.
(A) 1.18

(Q) Read the entry COc1cc2c(Nc3ccc(Br)cc3F)ncnc2cc1OCC1CCN(C)CC1 and write its reported %-inhibition of YES.
(A) 100

(Q) Read the entry Cc1ccc(C(=O)Nc2ccc(CN3CCN(C)CC3)c(C(F)(F)F)c2)cc1C#Cc1cnc2cccnn12 and write its reported %-inhibition of YES.
(A) 101

(Q) Read the entry Cc1ccc(Nc2nccc(N(C)c3ccc4c(C)n(C)nc4c3)n2)cc1S(N)(=O)=O and write its reported %-inhibition of YES.
(A) 68

(Q) Read the entry CC(=O)Nc1cccc(-n2c(=O)n(C3CC3)c(=O)c3c(Nc4ccc(I)cc4F)n(C)c(=O)c(C)c32)c1 and write its reported %-inhibition of YES.
(A) -1.63

(Q) Read the entry CNC(=O)c1cc(Oc2ccc(NC(=O)Nc3ccc(Cl)c(C(F)(F)F)c3)c(F)c2)ccn1 and write its reported %-inhibition of YES.
(A) 62

(Q) Read the entry Cc1cn(-c2cc(NC(=O)c3ccc(C)c(Nc4nccc(-c5cccnc5)n4)c3)cc(C(F)(F)F)c2)cn1 and write its reported %-inhibition of YES.
(A) 44
